assay: Absorption maximum of compound in chloroform solution; format: physicochemical; conditions: absorbance at maximum 0.7 to 1.2
QUANTITY MEASURED: Absorption Maximum (nm)
Give bare numbers, in nm.

Reference set, count: 2
{"columns": ["COMPOUND", "QUANTITY MEASURED", "RESULT"],
 "data": [
  ["CCCCCCC1=CC(=[N+](c2ccc3ccccc3c2)c2ccc3ccccc3c2)S/C1=C1\\C(=O)C(c2sc(N(c3ccc4ccccc4c3)c3ccc4ccccc4c3)cc2CCCCCC)=C1[O-] [Compound 1]", "Absorption Maximum (nm)", 719],
  ["CCCCc1ccc(N(c2ccc(CCCC)cc2)c2ccc(C3=C([O-])/C(=C4\\C=CC(=[N+](c5ccc(CCCC)cc5)c5ccc(CCCC)cc5)S4)C3=O)s2)cc1 [Compound R-3, reference compound]", "Absorption Maximum (nm)", 704]
]}

Q: What value of Absorption Maximum (nm) has been reported for the following compound? O=C1C(c2sc(N(c3ccccc3)c3ccccc3)nc2-c2ccccc2)=C([O-])/C1=C1/SC(=[N+](c2ccccc2)c2ccccc2)N=C1c1ccccc1 [Compound R-1, reference compound]
A: 687

Data provenance is patent US11209732B2.
